assayed-system: DRAK2 (Homo sapiens (Human))
experiment-notes: DRAK2 kinase activity inhibition (ADP-Glo, MRCL3 peptide substrate)
Type: biochemical
study-conditions: Table 3; recombinant enzyme, 1 uM ATP, 1 uM MRCL3 peptide, 30° C., 2 hours
metric: IC50 (nM)

These recorded examples may help you get a feel for the data.
Challenge: Consider the compound shown here: NCCCNc1nc(Nc2ccc(F)c(C(F)(F)F)c2)ncc1Cl [Example 15] What is its recorded IC50?
Response given: 26

Challenge: Consider the compound shown here: NCCCNc1nc(Nc2ccc(C3CCNCC3)cc2)ncc1Cl [Example 26] What is its recorded IC50?
Response given: 19

[1] Cc1ccc(Nc2ncc(C)c(NCCCN)n2)cc1C [Example 37]
[2] NCCCNc1nc(Nc2ccc(Cl)cc2)ncc1F [Comparative Example 1, reference compound]
Challenge: Which value of IC50 is numerically greater: that of 1 or that of 2 ? Answer format: the label of the selected item.
Response given: 2

[P] Cc1cnc(Nc2ccc(Cl)c(Cl)c2)nc1NCCCN [Example 39]
[Q] NCCCNc1nc(Nc2cc(Cl)cc(Cl)c2)ncc1Cl [Example 2]
Challenge: Decide: P or Q , by lowest recorded IC50. Answer format: the label of the selected item.
Response given: Q

* * *

assayed-system: DRAK2 (Homo sapiens (Human), UniProt O94768)
Sequence (O94768 whole entry): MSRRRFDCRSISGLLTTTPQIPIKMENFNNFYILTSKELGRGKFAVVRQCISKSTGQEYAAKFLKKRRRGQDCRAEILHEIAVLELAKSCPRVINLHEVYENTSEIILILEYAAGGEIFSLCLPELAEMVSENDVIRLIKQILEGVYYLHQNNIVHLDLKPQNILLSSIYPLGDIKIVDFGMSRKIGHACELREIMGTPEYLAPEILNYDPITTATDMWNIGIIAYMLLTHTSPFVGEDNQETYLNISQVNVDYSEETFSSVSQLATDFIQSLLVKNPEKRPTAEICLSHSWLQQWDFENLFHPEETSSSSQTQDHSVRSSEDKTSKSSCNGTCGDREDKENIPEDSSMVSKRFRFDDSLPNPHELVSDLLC
experiment-notes: DRAK2 kinase activity inhibition (ADP-Glo, MRCL3 peptide substrate)
Assay type: biochemical
study-conditions: Table 3; recombinant enzyme, 1 uM ATP, 1 uM MRCL3 peptide, 30° C., 2 hours
metric: IC50 (nM)

Challenge: Consider the compound shown here: Cc1ccc(Nc2ncc(Cl)c(NCCCN)n2)cc1C What is its recorded IC50?
Response given: 37

[P] NCCCNc1nc(Nc2ccc(Cl)cc2)ncc1[N+](=O)[O-] [Comparative Example 5, reference compound]
[Q] Cc1cnc(Nc2ccc(F)c(C(F)(F)F)c2)nc1NCCCN
Challenge: Decide: P or Q , by lowest recorded IC50. Answer format: the label of the selected item.
Response given: Q
(Q: 180 nM, P: 320 nM)

* * *

assayed-system: DRAK2 (Homo sapiens (Human))
experiment-notes: DRAK2 kinase activity inhibition (ADP-Glo, MRCL3 peptide substrate)
Type: biochemical
study-conditions: Table 3; recombinant enzyme, 1 uM ATP, 1 uM MRCL3 peptide, 30° C., 2 hours
metric: IC50 (nM)

These recorded examples may help you get a feel for the data.
Challenge: Could you share what IC50 was measured for Cc1cnc(Nc2ccc(N3CCNCC3)cc2)nc1NCCCN [Example 29] , tested on DRAK2 (Homo sapiens (Human))?
Response given: 100

Challenge: Could you share what IC50 was measured for Cc1ccc(Nc2ncc(Cl)c(NCCCN)n2)cc1Cl [Example 6] , tested on DRAK2 (Homo sapiens (Human))?
Response given: 24

Challenge: Could you share what IC50 was measured for NCCCNc1nc(Nc2ccc(Oc3ccccc3)cc2)ncc1Cl [Example 10] , tested on DRAK2 (Homo sapiens (Human))?
Response given: 26

Challenge: Could you share what IC50 was measured for NCCCNc1nc(Nc2ccc3c(c2)CCCC3=O)ncc1Cl [Example 24] , tested on DRAK2 (Homo sapiens (Human))?
Response given: 19

Challenge: Could you share what IC50 was measured for NCCCNc1nc(Nc2ccc3c(c2)CCCC3)ncc1Cl [Example 23] , tested on DRAK2 (Homo sapiens (Human))?
Response given: 15

[A] NCCCNc1nc(Nc2ccc(F)cc2)ncc1Cl [Example 9]
[B] Cc1cnc(Nc2ccc(Oc3ccccc3)cc2)nc1NCCCN [Example 33]
Challenge: Which value of IC50 is numerically greater: that of A or that of B ? Answer format: the label of the selected item.
Response given: B
(B: 490 nM, A: 19 nM)
